system: MS2 coat protein; experiment: apparent KD of MS2 coat protein, switch OFF state (with FMN for OFF switches, without FMN for ON switches); designed switch direction (-1 OFF switch, 1 ON switch): -1; higher = weaker reporter binding; conditions: FMN input: 0 or 200 uM; Eterna round: R93 (includes R88 designs)
measured_quantity: apparent KD of MS2 coat protein (nM)
I only need the number, in nM, no unit after it.

Here's what some known entries look like.
| sequence_record | measured_quantity | quantitative_result |
| --- | --- | --- |
| ACUAAUGAAGGAUAUACAAACAACAAACACACAACACACACACAUGAGGAUCACCCAUGUAGAAGGUCAAACAU [JR_Exc002_Sub1203] | apparent KD of MS2 coat protein | 15.6 |
| AAAUUGUCAGGAUAUCCAGCUAUACGAAAUAUAUAUACACGGGAGAAGGGACAUGAGGAUCACCCAUGUUUGAA [JR_Exc004_Sub702] | apparent KD of MS2 coat protein | 27.6 |
| CUCAUGUCAGGAUAUCAGUAGUAAAAAAAAAAAAUUACUACUGAGAAGGGACAUGAGGAUCACCCAUGUCCAUU [EX4 304: Super Stable 4] | apparent KD of MS2 coat protein | 36.9 |
| AAAGGGUCAGGAUAUGCACGAACAACAAAACAAAUAACGAUGCAGAAGGGACAUGAGGAUCACCCAUGUAUAAA [May 75] | apparent KD of MS2 coat protein | 52.1 |
| ACAGCUGAAGGAUAUACUUGGGAAAAAAAAAAAAAAAAAAAACAUGAGGAUCACCCAUGUAGAAGGUCAGCUGA [Brourd - Exclusion 2 - Sub 1] | apparent KD of MS2 coat protein | 43.5 |

Now take the following sequence into account.
QUERY: Field request: apparent KD of MS2 coat protein | item: AAGAAACAUGAGGAUCACCCAUGUGAGGAUAUGGAAGAAAGAAAGAAAGAAAGAAGAACCAGAAGGCACAAAGG [Publius Rubrius Barbarus]
RESULT: 105

----------
Here the recorded apparent KD of K4 kissing-loop reporter is given for each entry.
tested on: K4 kissing-loop RNA reporter; assay: apparent KD of K4 kissing-loop reporter; higher = weaker reporter binding; settings: Eterna round: R107; input ligand: theophylline 20 uM
I only need the number, in nM, no unit after it.

Here's what some known entries look like.
| sequence_record | unit_spec | apparent KD of K4 kissing-loop reporter |
| --- | --- | --- |
| UAGUCAUACAGAGGAUAUCGUAUGAGUGAUGUUCAUACGACAUAAUCGAGUUGUAUCGAUGUUCGACGAGAAGGCUGUAUGACUA [FMN B Ex t1b] | nM | 106 |
| CCGGCCCGGCCGGAUACCAGUGCGCCGCUGGGAACUGCGGGCCCAGAGUGAUGUUCGGGACACCCUUGGCAGCCGCCUGGGUCGC [#2 Same State - Theophylline B Attempt #25 (HarryS)] | nM | 360 |
| UGGAGUUGACGAAAAGUCAACUCCUGAGAUACCAGUGACGAAAGUCACCCUUGGCAGCUCACUGGCAGUGAUGUUGCACGAUAAA [KL-SSTheo-A1] | nM | 181 |

QUERY: Field request: apparent KD of K4 kissing-loop reporter | item: CUGAGCCUGACGUAAGUCAGGCUCUGCGAGCGAGGACCGGUACGGCCGCCACUCGGUGCAGUGAUGUUGCAUGGCCGCAAGGCCG [#2 Exclusion - Tryptophan A Attempt #19 (HarryS)]
RESULT: 254

QUERY: Field request: apparent KD of K4 kissing-loop reporter | item: AAACCAAUCAGAGGAUAUUCUUUAUUCGACAUAACCUUCUAUAAGGUGCAGUGAUGUUGCAAUAUAGGAGAAGGCUGAUUGACAA [Exclusion FMN B Gf 13]
RESULT: 488

QUERY: Field request: apparent KD of K4 kissing-loop reporter | item: GUCUCAAAAGAGGCAAGCACUAACGAGGACAAGGAUAUCAUCUCAAUGAGAAGGUGUCCUCGUCCUUAGUGAUGUUAAGGAGUGC [Omei KL FMN A SS E v5]
RESULT: 376

QUERY: Field request: apparent KD of K4 kissing-loop reporter | item: GGAUUGCCAGUGAUGUUGGCAUAAACUGAAGGAGCGCGUGAAAACGCAGGUAGGUCGCAGAACCUUGCCAACUAUUUUAUUUACC [Ex Arginine A K4 23]
RESULT: 103

----------
system: MS2 coat protein; assay: apparent KD of MS2 coat protein; higher = weaker reporter binding; conditions: Eterna round: R107; input ligand: none
measured_quantity: apparent KD of MS2 coat protein
Units required after the number.

QUERY: Field request: apparent KD of MS2 coat protein | item: CGGUCGGUCGGCCGGUGAUUAUGGGAUGAAGGAGCGUGGGAAGCUACAGGUAGGUCGCAUCCGAAACACGAGGAUCACCCGUGUU [SSArg A #25Alt-Ms2 Mod]
RESULT: 24.3 nM

QUERY: Field request: apparent KD of MS2 coat protein | item: GUAGCUAUCGCGGCCGCCACUAAACCGGAAACGGAACAGUAGGAUCACCAUUGUGGCGAAAGCCAUAGGACCGGGCGAUAGCUAC [TryBS - Double Magnet system 2]
RESULT: 502 nM

QUERY: Field request: apparent KD of MS2 coat protein | item: UAAUAAUCCAGGGUGUAGGUAAUAACAGAUACCAGCCAGAUAACUGGCCCUUGGCAGCUGAAAACCUGAGGAUCACCCAGGUAAA [TheoAS 23 #OpenEnded #MS2Late #AlternativeMS2]
RESULT: 56.2 nM

QUERY: Field request: apparent KD of MS2 coat protein | item: AGAGUCAGACAAAAGUCUGGCUCAGCCGAAGGAGCGUCCGAAAGGACAGGUAGGUCGCGGUUGCAUGAGGAUCACCCAUGUUCCU [ArgAS 30 #OpenEnded #AlternativeMS2]
RESULT: 286 nM

QUERY: Field request: apparent KD of MS2 coat protein | item: CCUAUGCAGUCGGCCGCCACUGAACAUGAGGAUCACCCAUGUUUUUAUAAAUAUGGUCCUAUAAUCAGGACCGGGACUGUAUAGG [Ex Tryptophan B 9]
RESULT: 69.2 nM

----------
tested on: MS2 coat protein; assay: apparent KD of MS2 coat protein; designed switch direction (-1 OFF switch, 1 ON switch): -1; higher = weaker reporter binding; conditions: input ligand: FMN 200 uM
measured_quantity: apparent KD of MS2 coat protein (nM)
I only need the number, in nM, no unit after it.

Here's what some known entries look like.
| sequence_record | unit_spec | apparent KD of MS2 coat protein |
| --- | --- | --- |
| GAGAACUGAGGAUAUACAUGAGGAUCACCCAUGUUAAGAAGAAAGUAUAAAAGAUUAUGUAGAAGGCAGAGAGA [JR_Ex3_Sub068] (Eterna round: R97, puzzle: Exclusion 3) | nM | 29.8 |
| AACGUACAGCAAAGCUGUACGCGUACAUGAGGAUCACCCAUGUAGGAUAUGGUAGGCAAAGCUUACUAGAAGGAUAGAGUGAUC [Mat - Exclusion NG 3 - Mod of JL - D77] (Eterna round: R96, puzzle: Exclusion NG 3) | nM | 497 |
| CGGCGGGCAGGAUAUGGAAAUAAUAACAUGAGGAUCACCCAUGUAAAUAAAUGGGAAUAACCAGAAGGGCUUGUUG [-18.2, -17.7 kcal, A 37%] (Eterna round: R97, puzzle: Exclusion 5) | nM | 49.7 |
| CGGCAUGUCUGAGGAUAUCUGCACGUGUAGUGCAGAGAAGGCAGAACAUGAGGAUCACCCAUGUAGAUCAUUAACCGAUUAAUU [ENG1/7-A3] (Eterna round: R96, puzzle: Exclusion NG 1) | nM | 201 |
| CAGCGAUCAGGAUAUACAUGAGGAUCACCCAUGUGUUCCAGCUAGGAAACUAGCAAAUGUAGAAGGGAUCGCUG [jl-ex3-4.00 salish99 mod] (Eterna round: R97, puzzle: Exclusion 3) | nM | 32.2 |
| GGUCAGAUGGUAGGAUAUCCAUAUUGAGUGACCCUUUCAUAACAUGAGGAUCACCCAUGUCGGUGGGAGAAGGGCCGUACGGCG [salish99_ExNG02_R04_015] (Eterna round: R96, puzzle: Exclusion NG 2) | nM | 176 |

QUERY: Field request: apparent KD of MS2 coat protein | item: AGAACUCUAGUAGGAUAUGUCGGAUAUGUUGUUGAGGUUCACCCAACGACGUCAAUGACAGAGGGACAGAAGGACUCCUGUUCC [pwkr exNG2 2xFMN 1xF5.9] (Eterna round: R96, puzzle: Exclusion NG 2)
RESULT: 873

----------
Here the recorded apparent KD of K4 kissing-loop reporter is given for each entry.
system: K4 kissing-loop RNA reporter; assay: apparent KD of K4 kissing-loop reporter; higher = weaker reporter binding; details: Eterna round: R107; input ligand: FMN 200 uM;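 further: bound reporter read as fluorescence of individual clusters on recovered sequencing chips by microscopy, with normalized cluster intensities fitted with a binding model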
I only need the number, in nM, no unit after it.

Here's what some known entries look like.
| sequence_record | unit_spec | apparent KD of K4 kissing-loop reporter |
| --- | --- | --- |
| AAGCAUUCUUCGGAAUGCAGACCCGCUGAGGAGGAUAUGACGAAAGUCAGAAGGCCUCAGUGAUGUUGAGGCCUCCUCAAUGGUC [Omei KL FMN A Exc A v1] | nM | 138 |
| GUGCGGCUAGUGAUGUUGGUUGUGUGGGAAGGAGCGCAGAUUCAUGCAGGUAGGUCGCCCACACCUCUGAAAGGAGGCUAAUUCA [KL-SSArg-A16] | nM | 453 |
| GGAAGAAGUGGUGUUGAUUAAGAAGCGGAAGGAGCGCCGAAGAAGGCAGGUAGGUCGCCGAAAUAUAGUGAUGUUAUAUAAAAGG [ExArg.A] | nM | 168 |
| GGAGAGAACUGAAGGAGCGGCAAGAGAGAAGGAAAUAUAGUGAUGUUAUAUAAGAGAGAGAGCCAGGUAGGUCGCAGAGGGAGGA [ExArgB.A] | nM | 201 |
| AUCGAUAUCAGAGGAUAUGCUUAAUUGAUUUAUUAUUAUUUAUUAUGCAGUGAUGUUGCAUUUUUUGCAGAAGGCUGAUUUCGAA [JR_SSFMNB_Sub022] | nM | 112 |

QUERY: Field request: apparent KD of K4 kissing-loop reporter | item: AUUGAACAAGUGAUGUUUGUAUUUUCCGAAGGAGCGUCUAAUAAGACAGGUAGGUCGCGGUUUCUCUUAAUAAUCAGGUCUUUAA [JR_Nu_ExcArginiA_Sub021]
RESULT: 279

QUERY: Field request: apparent KD of K4 kissing-loop reporter | item: UGGUUAAGCAGUGAUGUUGCAAGUAAUGAUACCAGUUAAGAAGAGAACCCUUGGCAGCAUAAAGUGCGCUCUGAUGAGUGUGCUU [whbob_SS_Theo_A_w54]
RESULT: 197

QUERY: Field request: apparent KD of K4 kissing-loop reporter | item: GCAAUCCCGGCGGCCGCCACUUUCAUACCAGUGAUGUUGAGUAGGAAAUGGAAUAUGCGCUGAAUAAGGACCGGGCCUAAGGAGA [theeternabot_exclusion_KL_Trp_B_47]
RESULT: 270

QUERY: Field request: apparent KD of K4 kissing-loop reporter | item: AGAUUCGACACGGCCGCCACUUGUGGUGGAUUAUCCUAUGUAAGACAUGAGUGAUGUUCAUGUACAAGGACCGGGUGUUGAGUCU [KL-XTryp-B4 #analogue]
RESULT: 215

QUERY: Field request: apparent KD of K4 kissing-loop reporter | item: UAAGAGGACCACUGCGAGAGUCCUCGAAUACGAGGACCGGUACGGCCGCCACUCGAUAAUUUGCAGUGAUGUUGCAAGUAAGAAU [BrourdMod 6 - Jieux - Same State Tryptophan A]
RESULT: 64.5

QUERY: Field request: apparent KD of K4 kissing-loop reporter | item: AUGGUUGUCGUAGGAUAUGUAGGUAAUUCCUAUAGCAGUGAUGUUGCUAAUAUCUUGGAAGAAGGAACAGAAGGACGAUAACCAC [KL-SSFMN-B1 #analogue]
RESULT: 123

QUERY: Field request: apparent KD of K4 kissing-loop reporter | item: AGACUACCACACUGUCAAUAGACAGUGAACUCGGAUAUGCUGAUAAGCAGAAGGAGUGAUGUUCCCAGGUAGUCAAUAAAAUAAU [FmnAX 13 C32+C66]
RESULT: 135

QUERY: Field request: apparent KD of K4 kissing-loop reporter | item: AACUUGUUUGGAGGAUAUUCUUUAUUCGACAUAACCUUCUAUAAGGUGCAGUGAUGUUGCAAUAUAGGAGAAGGUCGAGUGAGAA [Exclusion FMN B Gf 16]
RESULT: 207

QUERY: Field request: apparent KD of K4 kissing-loop reporter | item: UUUCGGUUCUGAGGAUAUUCGGACAAAUAUAGUGAUGUUGUAUAAGGAGGAGGGUGUUGGCAGUGCGGAGAAGGCAGACCACGAU [ExFMNB.X]
RESULT: 869

Attribution: the supplement of paper PMC9170038
